System: S. aureus
Test: Broth microdilution MIC testing
Type: cell-based, Staphylococcus aureus
Conditions: Staphylococcus aureus, read-out: MIC S. aureus
experimental.readout: MIC

See these solved cases before continuing.
> print(dat)
                                   compound  recorded.result
1  Oc1cccc(CN2CCc3nc(-c4ccccn4)nc(O)c3C2)c1 [Compound 321526]      > 128 µg/mL
2  COc1ccc(CN2CCc3nc(-c4ccccn4)nc(O)c3C2)cc1 [Compound 321529]      > 128 µg/mL
3  Clc1ccc(CN2CCc3nc(-c4ccccn4)ncc3C2)cc1 [Compound 323355]        128 µg/mL

Here is the next item to consider.
Problem: What measured MIC goes with O=c1[nH]c(-c2ccco2)nc2c1CN(Cc1ccc(Cl)cc1)CC2 [Compound 332053] ?
Solution: > 128 µg/mL
